The origin of these recorded values is paper PMC3764917.

Biological target: FAAH (Rattus norvegicus, UniProt P97612)
Sequence (P97612 1-579): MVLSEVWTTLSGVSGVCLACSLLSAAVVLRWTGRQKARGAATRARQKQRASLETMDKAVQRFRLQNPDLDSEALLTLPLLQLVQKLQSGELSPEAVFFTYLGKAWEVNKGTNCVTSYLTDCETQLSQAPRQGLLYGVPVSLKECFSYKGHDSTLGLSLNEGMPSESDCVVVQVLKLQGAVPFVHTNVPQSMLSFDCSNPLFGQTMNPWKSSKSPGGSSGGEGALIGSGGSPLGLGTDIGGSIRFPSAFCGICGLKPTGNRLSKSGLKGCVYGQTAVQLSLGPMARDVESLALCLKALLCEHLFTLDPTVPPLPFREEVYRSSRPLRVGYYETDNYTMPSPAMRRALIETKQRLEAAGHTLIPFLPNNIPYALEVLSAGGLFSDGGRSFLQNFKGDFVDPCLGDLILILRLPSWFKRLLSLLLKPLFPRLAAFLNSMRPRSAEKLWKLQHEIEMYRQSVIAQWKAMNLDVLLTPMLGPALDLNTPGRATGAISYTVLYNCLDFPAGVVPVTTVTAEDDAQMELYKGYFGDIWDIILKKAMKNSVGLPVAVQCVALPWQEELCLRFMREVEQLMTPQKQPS
Assay: FAAH activity: [3H]anandamide hydrolysis by total rat brain homogenates
Format: biochemical
PROPERTY MEASURED: FAAH inhibition, result in words

| MOLECULE | PROPERTY MEASURED | ENDPOINT RESULT |
| --- | --- | --- |
| CCCCNC(=O)n1c2ccc(Cl)cc2c2ccc(C(C)C(=O)O)cc21 (stereo not drawn) [Compound 10c] | FAAH inhibition, result in words | no inhibition |
| CNC(=O)n1c2ccc(Cl)cc2c2ccc(C(C)C(=O)O)cc21 (stereo not drawn) [Compound 10b] | FAAH inhibition, result in words | no inhibition |
